target: T1, human MSLN-FL-his protein (human, UniProt Q13421 296-580); assay: competitive ELISA; row F2.17.3
T1 construct: made in HEK293E cells, purified on nickel column; also called hMSLN-FL-his; human MSLN full-length protein; not shown: His tag
T1 sequence (Q13421 other isoform, or with tags, fused parts or gaps): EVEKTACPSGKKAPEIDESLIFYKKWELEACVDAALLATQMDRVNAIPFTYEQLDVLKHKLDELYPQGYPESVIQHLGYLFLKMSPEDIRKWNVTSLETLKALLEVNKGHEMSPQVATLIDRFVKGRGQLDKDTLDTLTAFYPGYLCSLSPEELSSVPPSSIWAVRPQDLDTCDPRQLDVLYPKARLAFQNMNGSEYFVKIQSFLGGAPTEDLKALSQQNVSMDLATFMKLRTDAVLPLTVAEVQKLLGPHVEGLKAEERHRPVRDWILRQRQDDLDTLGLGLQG
MEASUREMENT KIND: competition rate (%)

{"BINDER": "S009-F1.56.1 (antibody, human IgG1, kappa, V domains shown, human-murine chimeric antibody, human IgG1/kappa constant regions) VH: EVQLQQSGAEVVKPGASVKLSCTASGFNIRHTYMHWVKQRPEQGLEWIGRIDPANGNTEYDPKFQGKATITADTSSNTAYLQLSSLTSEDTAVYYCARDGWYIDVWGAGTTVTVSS VL: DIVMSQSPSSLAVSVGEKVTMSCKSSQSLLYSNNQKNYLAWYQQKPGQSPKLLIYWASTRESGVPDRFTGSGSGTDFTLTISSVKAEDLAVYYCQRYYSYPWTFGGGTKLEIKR", "TEST RESULT": -6}
{"BINDER": "S009-F1.35.24 (antibody, human IgG1, kappa, V domains shown, human-murine chimeric antibody, human IgG1/kappa constant regions) VH: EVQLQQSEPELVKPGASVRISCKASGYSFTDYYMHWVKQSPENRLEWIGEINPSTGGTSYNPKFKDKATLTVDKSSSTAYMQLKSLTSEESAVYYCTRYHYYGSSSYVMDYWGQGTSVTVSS VL: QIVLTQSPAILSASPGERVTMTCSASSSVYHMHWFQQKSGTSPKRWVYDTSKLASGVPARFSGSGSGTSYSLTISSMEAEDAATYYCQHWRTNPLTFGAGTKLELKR", "TEST RESULT": 59}
{"BINDER": "S009-F2.23.12 (antibody, human IgG1, kappa, V domains shown, human-murine chimeric antibody, human IgG1/kappa constant regions) VH: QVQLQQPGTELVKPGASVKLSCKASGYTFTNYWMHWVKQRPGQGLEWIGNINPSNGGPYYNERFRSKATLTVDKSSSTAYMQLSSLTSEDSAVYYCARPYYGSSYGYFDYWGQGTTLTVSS VL: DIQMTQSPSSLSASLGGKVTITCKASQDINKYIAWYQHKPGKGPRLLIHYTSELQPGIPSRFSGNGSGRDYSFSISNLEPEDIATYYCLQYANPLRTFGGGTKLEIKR", "TEST RESULT": 90}
{"BINDER": "S009-F2.39.3 (antibody, human IgG1, kappa, V domains shown, human-murine chimeric antibody, human IgG1/kappa constant regions) VH: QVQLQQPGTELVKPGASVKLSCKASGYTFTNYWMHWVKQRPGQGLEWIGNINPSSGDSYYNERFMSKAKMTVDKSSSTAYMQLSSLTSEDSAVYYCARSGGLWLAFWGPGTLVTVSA VL: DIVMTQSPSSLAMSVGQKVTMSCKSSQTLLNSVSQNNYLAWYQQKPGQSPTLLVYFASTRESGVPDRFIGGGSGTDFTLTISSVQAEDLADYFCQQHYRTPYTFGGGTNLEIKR", "TEST RESULT": 107}
{"BINDER": "Tab107 (YP3, hIgG1) (antibody, V domains shown, Control antibody; VH and VL recombined into human IgG1 CH and CL expression vectors; also called YP3 human IgG1 antibody) VH: QEQLVESGGGLVQPGASLTLTCTASGIDFSRYYMCWVRQAPGKGLEGIACIYIGGSGSTYYASWAKGRFTISKASSTTVTLQMTSLTAADTATYFCARGTNLNYIFRLWGPGTLVTVSS VL: DVVMTQTPSPVSAAVGGTVTIKCQASQSINNGLAWYQQKPGQPPRLLIYSASNLESGVPSRFKGSGSGTEFTLTISDLECDDAATYYCQCIWDGNSYVNAFGGGTEVVVRT", "TEST RESULT": -86}
{"BINDER": "S009-F1.2.12 (antibody, human IgG1, kappa, V domains shown, human-murine chimeric antibody, human IgG1/kappa constant regions) VH: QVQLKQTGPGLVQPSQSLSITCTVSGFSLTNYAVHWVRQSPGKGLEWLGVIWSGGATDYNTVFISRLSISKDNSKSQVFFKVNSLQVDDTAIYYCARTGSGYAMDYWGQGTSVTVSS VL: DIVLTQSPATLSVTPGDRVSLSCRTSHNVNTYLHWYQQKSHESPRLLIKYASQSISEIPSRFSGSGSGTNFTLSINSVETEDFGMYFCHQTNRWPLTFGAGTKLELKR", "TEST RESULT": -31}
{"BINDER": "S009-F2.58.8 (antibody, human IgG1, kappa, V domains shown, human-murine chimeric antibody, human IgG1/kappa constant regions) VH: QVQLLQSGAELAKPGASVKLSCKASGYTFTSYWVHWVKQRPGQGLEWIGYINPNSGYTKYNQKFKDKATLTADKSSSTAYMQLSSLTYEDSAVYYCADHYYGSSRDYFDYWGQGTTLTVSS VL: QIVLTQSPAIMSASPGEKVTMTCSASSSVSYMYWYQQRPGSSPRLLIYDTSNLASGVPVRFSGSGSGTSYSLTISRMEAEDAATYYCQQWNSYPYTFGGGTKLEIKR", "TEST RESULT": 84}

Values were extracted from patent US20250250357A1.
